The origin of these recorded values is ChEMBL document CHEMBL1149076.

Below is a list of entries, each paired with its recorded pIC50 value.
Test system: Protein deacetylase HDAC6 (Homo sapiens)
Sequence (Q9UBN7 whole entry): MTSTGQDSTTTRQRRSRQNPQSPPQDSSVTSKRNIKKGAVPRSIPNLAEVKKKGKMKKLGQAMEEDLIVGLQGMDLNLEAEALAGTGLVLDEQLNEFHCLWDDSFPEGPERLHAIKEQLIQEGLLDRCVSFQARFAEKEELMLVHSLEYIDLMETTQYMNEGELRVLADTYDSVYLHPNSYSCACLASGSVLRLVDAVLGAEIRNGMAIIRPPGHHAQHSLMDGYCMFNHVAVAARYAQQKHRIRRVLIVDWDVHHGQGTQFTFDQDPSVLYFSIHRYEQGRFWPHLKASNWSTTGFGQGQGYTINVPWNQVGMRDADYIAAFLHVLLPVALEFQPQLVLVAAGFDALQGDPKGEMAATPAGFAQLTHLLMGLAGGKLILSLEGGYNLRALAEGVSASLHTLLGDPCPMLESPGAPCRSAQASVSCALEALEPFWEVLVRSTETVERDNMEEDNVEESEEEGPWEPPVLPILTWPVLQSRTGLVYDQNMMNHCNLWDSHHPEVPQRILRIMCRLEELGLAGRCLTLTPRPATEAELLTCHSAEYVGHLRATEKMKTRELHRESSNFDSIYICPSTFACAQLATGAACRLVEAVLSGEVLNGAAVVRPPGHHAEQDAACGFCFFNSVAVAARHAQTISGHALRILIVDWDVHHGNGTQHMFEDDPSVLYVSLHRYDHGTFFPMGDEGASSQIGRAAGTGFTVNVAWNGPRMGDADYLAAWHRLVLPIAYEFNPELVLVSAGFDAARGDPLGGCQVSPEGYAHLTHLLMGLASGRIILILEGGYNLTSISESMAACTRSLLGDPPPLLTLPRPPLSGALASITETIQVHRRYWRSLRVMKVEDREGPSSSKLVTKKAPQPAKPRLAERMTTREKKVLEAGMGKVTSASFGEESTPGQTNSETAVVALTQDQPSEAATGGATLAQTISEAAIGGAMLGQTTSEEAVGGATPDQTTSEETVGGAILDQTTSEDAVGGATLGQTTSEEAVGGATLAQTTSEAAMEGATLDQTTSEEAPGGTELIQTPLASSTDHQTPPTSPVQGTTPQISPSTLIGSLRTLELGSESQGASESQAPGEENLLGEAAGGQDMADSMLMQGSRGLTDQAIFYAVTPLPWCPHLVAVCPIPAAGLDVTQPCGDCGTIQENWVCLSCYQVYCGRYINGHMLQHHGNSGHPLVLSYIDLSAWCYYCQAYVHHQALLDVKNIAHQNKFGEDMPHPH
Method description: Inhibition of human recombinant N-terminal histidine-tagged HDAC6 expressed in baculovirus by fluorimetry
pIC50: −log10 of the molar value.

The compound "NS(=O)(=O)NCCCCCC(=O)Nc1cnc2ccccc2c1" showed pIC50 equal to 6.15

New cases:
Lab note: "NS(=O)(=O)NCCCCCCC(=O)Nc1cccc(-c2ccccc2)c1" gave pIC50 of < 5.00

pIC50 for "NS(=O)(=O)NC(=O)CCCCCC(=O)Nc1cccc(-c2ccccc2)c1" is < 5.00

---

Test system: Histone deacetylase 4 (Homo sapiens) (UniProt P56524)
Sequence (P56524 whole entry): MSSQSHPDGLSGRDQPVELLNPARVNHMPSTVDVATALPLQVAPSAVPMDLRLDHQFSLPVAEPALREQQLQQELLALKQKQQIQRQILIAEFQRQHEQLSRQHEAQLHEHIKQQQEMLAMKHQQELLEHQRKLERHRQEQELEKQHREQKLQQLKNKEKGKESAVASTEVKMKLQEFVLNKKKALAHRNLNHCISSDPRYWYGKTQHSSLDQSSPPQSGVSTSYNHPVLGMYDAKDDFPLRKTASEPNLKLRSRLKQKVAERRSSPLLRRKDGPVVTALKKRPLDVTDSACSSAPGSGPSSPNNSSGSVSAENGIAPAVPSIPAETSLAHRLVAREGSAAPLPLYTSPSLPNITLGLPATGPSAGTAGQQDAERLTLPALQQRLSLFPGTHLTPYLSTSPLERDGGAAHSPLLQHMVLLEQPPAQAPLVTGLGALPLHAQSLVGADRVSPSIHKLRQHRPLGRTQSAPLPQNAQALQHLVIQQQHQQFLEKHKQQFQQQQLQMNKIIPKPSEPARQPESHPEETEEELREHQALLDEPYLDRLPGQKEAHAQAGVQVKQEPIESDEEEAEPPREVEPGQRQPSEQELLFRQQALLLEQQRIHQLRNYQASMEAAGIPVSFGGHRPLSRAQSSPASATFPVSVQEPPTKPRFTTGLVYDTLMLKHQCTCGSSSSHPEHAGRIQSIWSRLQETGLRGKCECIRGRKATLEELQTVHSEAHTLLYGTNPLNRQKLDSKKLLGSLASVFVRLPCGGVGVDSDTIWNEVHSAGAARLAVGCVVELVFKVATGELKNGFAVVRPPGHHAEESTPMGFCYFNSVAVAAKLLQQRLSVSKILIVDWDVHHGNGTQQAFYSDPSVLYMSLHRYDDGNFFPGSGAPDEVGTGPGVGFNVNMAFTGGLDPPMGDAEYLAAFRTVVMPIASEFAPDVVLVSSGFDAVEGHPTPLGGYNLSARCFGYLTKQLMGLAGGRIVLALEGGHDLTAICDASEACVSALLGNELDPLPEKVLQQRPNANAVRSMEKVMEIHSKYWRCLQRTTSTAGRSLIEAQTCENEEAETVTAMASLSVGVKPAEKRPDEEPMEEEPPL
Method description: Inhibition of human recombinant N-terminal histidine-tagged HDAC4 expressed in baculovirus by fluorimetry
Calls of active or inactive are those of the source. No cut-off for these calls is given here.
Measured property: Activity

Solved entries:
Item "NS(=O)(=O)NCCCCCC(=O)Nc1cccc(-c2ccccc2)c1" was tested on Histone deacetylase 4 (Homo sapiens) (UniProt P56524); the reported Activity is inactive

Tested system Histone deacetylase 4 (Homo sapiens) (UniProt P56524); Activity recorded for "NS(=O)(=O)NC(=O)CCCCCC(=O)Nc1cccc(-c2ccccc2)c1" was inactive

Item "NS(=O)(=O)OCCCCCC(=O)Nc1cccc(-c2ccccc2)c1" ; assay system Histone deacetylase 4 (Homo sapiens) (UniProt P56524); Activity reported as inactive

Entry "CNS(=O)(=O)NCCCCCC(=O)Nc1cccc(-c2ccccc2)c1" ; assay system Histone deacetylase 4 (Homo sapiens) (UniProt P56524); Activity recorded at inactive

New cases:
Query "CC(=O)NS(=O)(=O)NCCCCCC(=O)Nc1cccc(-c2ccccc2)c1" on Histone deacetylase 4 (Homo sapiens) (UniProt P56524); Activity returned: inactive

Field Activity (system: Histone deacetylase 4 (Homo sapiens) (UniProt P56524)) for entry "CN(CCCCCC(=O)Nc1cccc(-c2ccccc2)c1)S(N)(=O)=O" = inactive

Result for "NS(=O)(=O)NCCCCCCC(=O)Nc1cccc(-c2ccccc2)c1" , tested on Histone deacetylase 4 (Homo sapiens) (UniProt P56524), Activity: inactive

Form field, Activity with Histone deacetylase 4 (Homo sapiens) (UniProt P56524), item "NS(=O)(=O)NCCCCC(=O)Nc1cccc(-c2ccccc2)c1" : inactive

Field Activity (Histone deacetylase 4 (Homo sapiens) (UniProt P56524)), entry "CN(C)S(=O)(=O)NCCCCCC(=O)Nc1cccc(-c2ccccc2)c1" : inactive
